SYSTEM UNDER TEST: T1, human EGFRvIII-hFc protein (human, UniProt P00533 25-645)
T1 construct: extracellular domain; also called immunogen A; hFc-tagged EGFRvIII protein; not shown: human IgG Fc fragment (hFc) of the pCpC vector
EXPERIMENT SUMMARY: ELISA, EGFRvIII-hFc coated
ENDPOINT LABEL: OD450 nm at 0.1 nM antibody
Report the figure along with its unit, number first.

Retrieve OD450 nm at 0.1 nM antibody measured for Chimeric antibody 64F1 (antibody, human IgG1, V domains shown, also called clone 64F1F8) VH: QVQLQQSGAELARPGASVKMSCKASGYTFSSYTMHWAKQRPGQGLEWIGYINPSSGYTKYNQKFKDKATLTADKSSSTAYMQLSSLTSEDSIVYYCARGGGRGFAYWGQGTLVTVSA VL: QIVLTQSPAIMSASPGERVTMTCSASSSVSYMYWYQQKPGSSPRLLIYDTSNLASGVPVRFSGSGSGTSYSLTISRVEAEDAATYYCQQWSSYSLTFGAGTKLELK and print it. 2.23 OD450
